The following compounds are listed with their measured Cumulative release percentage of the drug values.
assay.text: Drug release from drug-containing disulfide-bond cross-linked hyaluronic acid hydrogel into phosphate buffer solution
Type: physicochemical
condition.context: 14 days, hydrogel 10 mg/ml hyaluronic acid, degree of mercapto-modification 3.97%, 37° C., 100 rpm
endpoint: Cumulative release percentage of the drug

{"columns": ["compound", "result"],
 "data": [
  ["C[C@H]1C[C@H]2[C@@H]3CCC4=CC(=O)C=C[C@]4(C)[C@@]3(Cl)[C@@H](O)C[C@]2(C)[C@@]1(O)C(=O)CO [Beclomethasone]", "87%"],
  ["CCC(=O)OCC(=O)[C@@]1(OC(=O)CC)[C@@H](C)C[C@H]2[C@@H]3CCC4=CC(=O)C=C[C@]4(C)[C@@]3(Cl)[C@@H](O)C[C@@]21C [Beclomethasone dipropionate]", "<1%"],
  ["C[C@]12C=CC(=O)C=C1CC[C@@H]1[C@@H]2[C@@H](O)C[C@@]2(C)[C@H]1CC[C@]2(O)C(=O)CO [Prednisolone]", "100%"],
  ["C[C@]12C=CC(=O)C=C1CC[C@@H]1[C@@H]2C(=O)C[C@@]2(C)[C@H]1CC[C@]2(O)C(=O)CO [Prednisone]", "99%"]
]}

###

assay.text: Drug release from drug-containing disulfide-bond cross-linked hyaluronic acid hydrogel into phosphate buffer solution
Type: physicochemical
condition.context: 7 days, hydrogel 10 mg/ml hyaluronic acid, degree of mercapto-modification 3.97%, 37° C., 100 rpm
The following compounds are listed with their measured Cumulative release percentage of the drug values.
endpoint: Cumulative release percentage of the drug (%)

{"columns": ["compound", "unit.of.measure", "censor.symbol", "recorded.number"],
 "data": [
  ["C[C@H]1C[C@H]2[C@@H]3CCC4=CC(=O)C=C[C@]4(C)[C@@]3(Cl)[C@@H](O)C[C@]2(C)[C@@]1(O)C(=O)CO [Beclomethasone]", "%", "=", 68],
  ["CCC(=O)OCC(=O)[C@@]1(OC(=O)CC)[C@@H](C)C[C@H]2[C@@H]3CCC4=CC(=O)C=C[C@]4(C)[C@@]3(Cl)[C@@H](O)C[C@@]21C [Beclomethasone dipropionate]", "%", "<", 1],
  ["C[C@]12C=CC(=O)C=C1CC[C@@H]1[C@@H]2C(=O)C[C@@]2(C)[C@H]1CC[C@]2(O)C(=O)CO [Prednisone]", "%", "=", 86],
  ["C[C@]12C=CC(=O)C=C1CC[C@@H]1[C@@H]2[C@@H](O)C[C@@]2(C)[C@H]1CC[C@]2(O)C(=O)CO [Prednisolone]", "%", "=", 95]
]}

###

The following molecules are listed with their measured Cumulative release percentage of the drug values.
assay.text: Drug release from drug-containing disulfide-bond cross-linked hyaluronic acid hydrogel into phosphate buffer solution
Assay type: physicochemical
condition.context: 21 days, hydrogel 10 mg/ml hyaluronic acid, degree of mercapto-modification 3.97%, 37° C., 100 rpm
endpoint: Cumulative release percentage of the drug (%)

{"columns": ["molecule", "unit.of.measure", "censor.symbol", "recorded.number"],
 "data": [
  ["C[C@H]1C[C@H]2[C@@H]3CCC4=CC(=O)C=C[C@]4(C)[C@@]3(Cl)[C@@H](O)C[C@]2(C)[C@@]1(O)C(=O)CO", "%", "=", 94],
  ["CCC(=O)OCC(=O)[C@@]1(OC(=O)CC)[C@@H](C)C[C@H]2[C@@H]3CCC4=CC(=O)C=C[C@]4(C)[C@@]3(Cl)[C@@H](O)C[C@@]21C [Beclomethasone dipropionate]", "%", "<", 1],
  ["C[C@]12C=CC(=O)C=C1CC[C@@H]1[C@@H]2C(=O)C[C@@]2(C)[C@H]1CC[C@]2(O)C(=O)CO", "%", "=", 100],
  ["C[C@]12C=CC(=O)C=C1CC[C@@H]1[C@@H]2[C@@H](O)C[C@@]2(C)[C@H]1CC[C@]2(O)C(=O)CO", "%", "=", 100]
]}
